Entry source: the supplement of paper PMC4466140

# TARGET: AgSla1-D1-D2
# METHOD_DESCRIPTION: SPOT peptide array binding signal intensity (averaged, normalized) (arbitrary units (background-subtracted, floor 0; scale differs between SH3 domains)); higher = stronger binding of the SH3 domain to the peptide
QUANTITY_MEASURED: SPOT peptide array binding signal intensity

[[record]]
binder = "TPTSGPPLLPPRNTM"
recorded_result = "≤ 0"

[[record]]
binder = "SSSSSPPPLPTRRDH"
recorded_result = "≤ 0"

[[record]]
binder = "NLDRSKISLPDFDDE"
recorded_result = "≤ 0"

[[record]]
binder = "DAPASKPSVPPRNYF"
recorded_result = "≤ 0"

[[record]]
binder = "QPWTDQFEKLEKEVS"
recorded_result = "≤ 0"

[[record]]
binder = "IAPIPMPKPNPTHIS"
recorded_result = "≤ 0"

[[record]]
binder = "PALPSLPPPPLLNVD"
recorded_result = "≤ 0"

[[record]]
binder = "GDHPKGPPPPPPPPD"
recorded_result = "≤ 0"

[[record]]
binder = "QHQQRQPKRPKRYSL"
recorded_result = 288

[[record]]
binder = "GRLRPKRIAPWHLIQ"
recorded_result = 44


Problem: Record request: SPOT peptide array binding signal intensity value, item VFQFQMPTTPISTKM
Result: 1.5

Problem: Record request: SPOT peptide array binding signal intensity value, item IKKRNKIRLPSGSPE
Result: 89

Problem: Record request: SPOT peptide array binding signal intensity value, item PPIPIVPSSPAPPLP
Result: ≤ 0

Problem: Record request: SPOT peptide array binding signal intensity value, item LKPPIGRPPKFPKSP
Result: 21.5

Problem: Record request: SPOT peptide array binding signal intensity value, item VPPVPLPFGIPPFPM
Result: 4

Problem: Record request: SPOT peptide array binding signal intensity value, item VKPRQLFPIPLNKVD
Result: 1

Problem: Record request: SPOT peptide array binding signal intensity value, item MPAPPPPPPPPPGAF
Result: ≤ 0
